Experiment: NCI Yeast Anticancer Drug Screen. Data for the wt2 strain (AID 169);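 also: 0% = growth of vehicle-treated yeast cultures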
Conditions: S. cerevisiae wt2 strain growth inhibition; at 3.7 µM; stronger effect = higher value
About 79,000 compounds went through this panel and 15% of them were active in at least one assay; those are over-represented in the sample as a whole.
What growth inhibition was measured for each of the following?
Give bare numbers, in %.

Give me growth inhibition for each of these compounds, listed below.
1. Nc1ccc2c(c1)sc1ccccc12
2. Cc1onc(-c2ccccc2Cl)c1C1=N/C(=C/c2cc(Cl)cc(Cl)c2O)C(=O)O1
3. O=C1c2c(O)cccc2-c2nn(CCNCCO)c3ccc(NCCNCCO)c1c23
4. CCCCCCCCCCCCCCCCNC(=O)/C(=C\c1ccc(Cl)c(Cl)c1)NC(=O)c1ccccc1
5. O=Nn1c2ccccc2c2ccccc21
6. CCc1nc(N)nc(N)c1-c1ccc(NCCCCCCN)c([N+](=O)[O-])c1
7. NC(N)=NCCCS(=O)(=O)Nc1ccc(Nc2c3ccccc3nc3cc([N+](=O)[O-])ccc23)cc1
8. O=C(CCc1ccccc1)ON1C(=S)C(c2ccccc2)(c2ccccc2)N=C1Sc1ccccc1

stdout:
1: -2; 2: -12; 3: -27; 4: 1; 5: -34; 6: 0; 7: -58; 8: -4

Give me growth inhibition for each of these compounds, listed below.
1. N#C/C(=C/c1c(Cl)cccc1Cl)C(N)=O
2. CC(C)c1[nH]nc(C(N)=O)c1N=NN(C)C
3. CC(=O)O[C@H]1C(=O)[C@@]2(C)[C@H]([C@H](OC(=O)c3ccccc3)[C@]3(O)C[C@H](OC(=O)[C@H](O)[C@@H](NC(=O)c4ccccc4)c4ccccc4)C(C)=C1C3(C)C)[C@]1(OC(C)=O)CO[C@@H]1C[C@@H]2O

stdout:
-2
-1
-2
